- Test system: AEK1 (Tb927.3.2440)
- measurement_protocol: percent reduction in TR-FRET probe signal relative to DMSO control; higher = stronger displacement of ATP-site probe (binding)
- cond: 1 µM; incubation time 1 h
Measured percent reduction in TR-FRET probe signal, listed per entry.
Hi! Could you send only the number? It should be in %, unit omitted.

Record excerpt, results attached:
CNC(=O)CN1CCC(Oc2cc3c(Nc4cccc(Cl)c4F)ncnc3cc2OC)CC1 : -5.78
CNC(=O)c1cc(Oc2ccc(NC(=O)Nc3ccc(Cl)c(C(F)(F)F)c3)cc2)ccn1.Cc1ccc(S(=O)(=O)O)cc1 [Sorafenib Tosylate] : 17
Cc1ccc2nc(NCCN)c3ncc(C)n3c2c1 : -7.43
O=C1NC(=O)/C(=C/c2ccc3c(c2)OC(F)(F)O3)S1 : -3.7
CN(C)C/C=C/C(=O)Nc1cc2c(Nc3ccc(F)c(Cl)c3)ncnc2cc1O[C@H]1CCOC1 : 15.6

The molecule `N#Cc1c(NC(=O)c2cccc3ccccc23)sc2c1CCCC2` showed percent reduction in TR-FRET probe signal equal to -3.71

The molecule `CCCNC(=O)Nc1ccc(Oc2ncnc3cc(OC)c(OC)cc23)cc1Cl` showed percent reduction in TR-FRET probe signal equal to -3.67

The molecule `Nc1nc(N)c2nc(-c3cccc(O)c3)c(-c3cccc(O)c3)nc2n1` showed percent reduction in TR-FRET probe signal equal to 19.3

The molecule `Nc1cccc(-c2cc3c(Oc4cccc(O)c4)ncnc3[nH]2)c1` showed percent reduction in TR-FRET probe signal equal to 18.7

* * *

- System: AEK1 (Tb927.3.2440)
- measurement_protocol: percent reduction in TR-FRET probe signal relative to DMSO control; higher = stronger displacement of ATP-site probe (binding)
- cond: 1 µM; incubation time 1 h
Measured percent reduction in TR-FRET probe signal, listed per entry.
Hi! Could you send only the number? It should be in %, unit omitted.

The compound `O=C(c1cccc(Cl)c1F)N1CCN(Cc2cccc(Nc3nccs3)n2)CC1` showed percent reduction in TR-FRET probe signal equal to 6.09

* * *

- Tested on: AEK1 (Tb927.3.2440)
- measurement_protocol: percent reduction in TR-FRET probe signal relative to DMSO control; higher = stronger displacement of ATP-site probe (binding)
- cond: 1 µM; incubation time 1 h
measured_metric: percent reduction in TR-FRET probe signal (%)
Hi! Could you send only the number? It should be in %, unit omitted.

Record excerpt, results attached:
COc1c(C)c(C(=O)c2ccc(N)c(C(=O)[O][Na])c2)n2ccccc12 : 6.59
CC(C)(C)c1nc(-c2cccc(NS(=O)(=O)c3c(F)cccc3F)c2F)c(-c2ccnc(N)n2)s1 : 6.2
Oc1cccc(-c2nc(N3CCOCC3)c3oc4ncccc4c3n2)c1 : -5.8
O=C(NC[C@H](O)CO)c1ccncc1Nc1ccc(I)cc1F : 8.42
Cn1sc(=O)n(Cc2ccccc2)c1=O : -18.6
O=C(NCCO)c1cccc(-c2cc(Nc3ccc(OC(F)(F)F)cc3)ncn2)c1 : 13.3
COc1ccc2c(c1)c(C1=C(c3c[nH]c4ccccc34)C(=O)NC1=O)cn2CCCN(C)C : 4.65
CCc1nc(-c2cccc(C)c2)c(-c2ccnc(NC(=O)c3ccccc3)c2)s1 : -2.96

The compound `N#C/C(=C\c1ccc(O)c(O)c1)C(=O)NCc1ccccc1` showed percent reduction in TR-FRET probe signal equal to -5.12

* * *

- Tested on: AEK1 (Tb927.3.2440)
- measurement_protocol: percent reduction in TR-FRET probe signal relative to DMSO control; higher = stronger displacement of ATP-site probe (binding)
- cond: 1 µM; incubation time 1 h
Measured percent reduction in TR-FRET probe signal, listed per entry.
Hi! Could you send only the number? It should be in %, unit omitted.

CC(C)(CCCCCC(O)CCCCCC(C)(C)C(=O)O)C(=O)O : 0.88
O=c1ccc2ccc(O)c(O)c2o1 : -1.13
Clc1ccc(C2(c3ccc(-c4cn[nH]c4)cc3)CCNCC2)cc1 : 27.3

The molecule C1=C/COCc2cc(ccc2OCCN2CCCC2)Nc2nccc(n2)-c2cccc(c2)COC/1 [Pacritinib (SB1518)] showed percent reduction in TR-FRET probe signal equal to -2.95

The molecule `CCCS(=O)(=O)Nc1ccc(F)c(C(=O)c2c[nH]c3ncc(-c4ccc(Cl)cc4)cc23)c1F` showed percent reduction in TR-FRET probe signal equal to 4.16

The molecule `O=C(O)CCC(=O)Nc1ccc(Br)cn1` showed percent reduction in TR-FRET probe signal equal to -3.76

The molecule `N#Cc1ccc2[nH]c(O)c(-c3ccc(CN4CCOCC4)cn3)c2c1` showed percent reduction in TR-FRET probe signal equal to -12.4

The molecule `NC(=O)c1ncn([C@@H]2O[C@H](CO)[C@@H](O)[C@H]2O)c1N` showed percent reduction in TR-FRET probe signal equal to -1.92

The molecule `CNC(=O)c1cc(Oc2ccc(NC(=O)Nc3ccc(Cl)c(C(F)(F)F)c3)cc2)ccn1` showed percent reduction in TR-FRET probe signal equal to 17.5

* * *

- Tested on: AEK1 (Tb927.3.2440)
- measurement_protocol: percent reduction in TR-FRET probe signal relative to DMSO control; higher = stronger displacement of ATP-site probe (binding)
- cond: 1 µM; incubation time 1 h
measured_metric: percent reduction in TR-FRET probe signal (%)
Hi! Could you send only the number? It should be in %, unit omitted.

Record excerpt, results attached:
COc1cc2c(Nc3ccc(NC(=O)c4ccccc4)cc3)ncnc2cc1OCCCN1CCOCC1 : 4.13
CNc1nc(Nc2cn(C(C)(C)C#N)nc2C)ncc1C(F)(F)F : -10.7
Cc1ccc(-c2nn(C(C)(C)C)c3ncnc(N)c23)cc1 : -1.9
CN1CC[C@@H](c2c(O)cc(O)c3c(=O)cc(-c4ccccc4Cl)oc23)[C@@H]1CO.Cl : 4
O=C(c1ccc(/C=C/c2n[nH]c3ccccc23)cc1)N1CCNCC1 : 51.6
Cc1cc(C(C)Nc2ccccc2)c2nc(N3CCOCC3)cc(=O)n2c1 (configuration not stated) : -4.42

The compound `CC(=O)Nc1nc(C)c(-c2ccc(Cl)c(S(=O)(=O)NCCO)c2)s1` showed percent reduction in TR-FRET probe signal equal to -6.5

The compound `CCN(CC)CCCCNc1ncc2cc(-c3cc(OC)cc(OC)c3)c(NC(=O)NC(C)(C)C)nc2n1` showed percent reduction in TR-FRET probe signal equal to -17.7

The compound `CN(C[C@@H]1COCCO1)S(=O)(=O)Nc1ccc2ccc3ncc(-c4cnn(C)c4)cc3c(=O)c2c1` showed percent reduction in TR-FRET probe signal equal to 7.88

The compound `Cn1cc(-c2[nH]c3cc(NC(=O)[C@H](N)C4CCCCC4)cc4c3c2C=NNC4=O)cn1` showed percent reduction in TR-FRET probe signal equal to 76.9

The compound `N#CCNC(=O)c1ccc(-c2ccnc(Nc3ccc(N4CCOCC4)cc3)n2)cc1` showed percent reduction in TR-FRET probe signal equal to 16.3

The compound `Cc1cc(Nc2ncc3c(n2)N(C)C(=O)N(c2cc(NC(=O)c4cccc(C(F)(F)F)c4)ccc2C)C3)n(C)n1` showed percent reduction in TR-FRET probe signal equal to 5.55

The compound `Cc1ccccc1-n1c(Cn2nc(-c3cccc(O)c3)c3c(N)ncnc32)nc2cccc(C)c2c1=O` showed percent reduction in TR-FRET probe signal equal to 1.94

The compound `N#Cc1c(O)c2c(-c3ccc(-c4ccccc4O)cc3)csc2[nH]c1=O` showed percent reduction in TR-FRET probe signal equal to -7.05

* * *

- Tested on: AEK1 (Tb927.3.2440)
- measurement_protocol: percent reduction in TR-FRET probe signal relative to DMSO control; higher = stronger displacement of ATP-site probe (binding)
- cond: 1 µM; incubation time 1 h
Measured percent reduction in TR-FRET probe signal, listed per entry.
Hi! Could you send only the number? It should be in %, unit omitted.

Cc1ccc(C(=O)Nc2ccc(CN3CCN(C)CC3)c(C(F)(F)F)c2)cc1C#Cc1cnc2[nH]ncc2c1 : 29.4
CCN1CCN(Cc2ccc(C(=O)Nc3ccc(C)c(Oc4ccc5c(c4)CC(=O)N5)c3)cc2C(F)(F)F)CC1 : -7.33
Cc1c(NC(=O)c2ccc(C(C)(C)C)cc2)cccc1-c1cn(C)c(=O)c(Nc2ccc(C(=O)N3CCOCC3)cc2)n1 : -8
C[C@@]1(C(=O)Nc2ccc(F)nc2)CCCN1c1nc(Nc2cc(C3CC3)[nH]n2)c2cccn2n1 : 23.1
CCN(CC)CCCC(C)Nc1ccnc2cc(Cl)ccc12.O=P(O)(O)O.O=P(O)(O)O (configuration not stated) [Chloroquine Phosphate] : -15.1

The compound `Nc1ccc(C(=O)Nc2cccc(-c3nc(N4CCOCC4)c4oc5ncccc5c4n3)c2)cn1` showed percent reduction in TR-FRET probe signal equal to -7.4

The compound `Cc1ccc(C(=O)Nc2ccc(CN3CCN(C)CC3)c(C(F)(F)F)c2)cc1C#Cc1cnc2cccnn12` showed percent reduction in TR-FRET probe signal equal to 0.933
